Numbers sourced from patent US12404249B2.

Molecular target: STAT3 (Homo sapiens)
Construct: endogenous in cells; host or cells: LNCaP (human prostate cancer) stably carrying pSTAT3-TA-luc reporter plasmid
Sequence (P40763 whole entry): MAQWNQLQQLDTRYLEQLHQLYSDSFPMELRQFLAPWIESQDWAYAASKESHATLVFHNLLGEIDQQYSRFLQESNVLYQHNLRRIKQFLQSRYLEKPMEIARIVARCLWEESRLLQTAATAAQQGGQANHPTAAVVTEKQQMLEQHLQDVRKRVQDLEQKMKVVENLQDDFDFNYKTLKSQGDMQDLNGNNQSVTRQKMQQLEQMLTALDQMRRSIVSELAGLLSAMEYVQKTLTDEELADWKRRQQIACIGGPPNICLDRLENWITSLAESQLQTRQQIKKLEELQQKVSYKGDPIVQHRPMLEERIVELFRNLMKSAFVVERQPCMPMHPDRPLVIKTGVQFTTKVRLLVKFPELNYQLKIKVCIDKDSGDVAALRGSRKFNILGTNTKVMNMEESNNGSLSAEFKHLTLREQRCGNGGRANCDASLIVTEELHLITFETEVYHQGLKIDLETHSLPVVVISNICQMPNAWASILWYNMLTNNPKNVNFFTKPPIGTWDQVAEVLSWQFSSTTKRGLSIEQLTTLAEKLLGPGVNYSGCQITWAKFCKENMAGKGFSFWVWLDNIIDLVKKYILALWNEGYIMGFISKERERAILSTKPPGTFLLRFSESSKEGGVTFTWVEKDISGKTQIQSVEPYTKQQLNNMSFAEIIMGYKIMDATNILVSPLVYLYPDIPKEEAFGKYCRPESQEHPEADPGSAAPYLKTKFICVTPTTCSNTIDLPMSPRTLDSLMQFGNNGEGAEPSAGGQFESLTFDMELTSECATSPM
Assay: STAT3 activation inhibition assay (reporter gene assay, LNcaP stable cell line, IL-6 stimulated)
Type: cell-based
Conditions: LNcaP stable cell line [plasmid STAT3-TA-luc], IL-6 10 ng/mL, 48 hours, luciferase activity; read-out: IC50 (μM) pSTAT3
Property: log10 IC50 (log10 of the value in µM)
Note the log scale: values are log10 of IC50 expressed in µM.

Inquiry: State its log10 IC50: O=Nc1ccc(CCNc2cc(Cl)nc3ccccc23)cc1
Reply text: -0.12

Inquiry: Given O=[N+]([O-])c1ccc(C(F)(F)CNc2ncnc3ccccc23)cc1 , respond with its log10 IC50.
Reply text: -0.46

Inquiry: Let me know recorded log10 IC50 for CS(=O)(=O)Nc1ccc(CCNc2cncc3ccccc23)cc1 , thanks.
Reply text: -0.12

Inquiry: Give log10 IC50 for the following molecule: CNc1cc(NCCc2ccc([N+](=O)[O-])cc2)c2ccccc2n1 [Example 51, 2,2,2-trifluoroacetate]
Reply text: 1.38

Inquiry: Please report log10 IC50 for the following molecule: Nc1ccc(CCNc2cc(Cl)nc3ccccc23)cc1
Reply text: -0.15

Inquiry: Report log10 IC50 for CS(=O)(=O)Nc1ccc(CCNc2ncnc3ccsc23)cc1
Reply text: -0.13

Inquiry: Supply recorded log10 IC50 for CS(=O)(=O)Nc1ccc(CCNc2ncnc3sccc23)cc1 here.
Reply text: -1.12

Inquiry: Using the record for O=[N+]([O-])c1ccc(CCNc2cc(Cl)nc3ccc(F)cc23)cc1 , state its measured log10 IC50.
Reply text: -0.23

Inquiry: For the molecule Cc1cccc2c(NCCc3ccc([N+](=O)[O-])cc3)cc(Cl)nc12 , report log10 IC50.
Reply text: 0.49

Inquiry: Give a short answer stating reported log10 IC50 for O=[N+]([O-])c1ccc(CCNc2nc(F)nc3[nH]cnc23)cc1 .
Reply text: 1.14

Inquiry: Please indicate log10 IC50 recorded for CS(=O)(=O)Nc1ccc(CCNc2ccnc3cccc(OC(F)(F)F)c23)cc1
Reply text: -0.85

Inquiry: Answer with reported log10 IC50 of O=[N+]([O-])c1ccc(CCNc2ncnc3ccc(F)cc23)cc1
Reply text: -1.28

Inquiry: Using the record for O=[N+]([O-])c1ccc(CCNc2ncnc3ccccc23)cc1 , state its measured log10 IC50.
Reply text: -1.64

Inquiry: Quote log10 IC50 reported for CS(=O)(=O)Nc1ccc(CCNc2ncnc3[nH]ccc23)cc1 please.
Reply text: 0.58

Inquiry: Please supply the value of reported log10 IC50 for the item NS(=O)(=O)c1ccc(CCNc2cc(Cl)nc3ccccc23)cc1
Reply text: 1.02

Inquiry: Specify measured log10 IC50 for COc1ccc2nc(Cl)cc(NCCc3ccc(NS(C)(=O)=O)cc3)c2c1 .
Reply text: 0.20

Inquiry: Write down log10 IC50 measured for item CS(=O)(=O)Nc1ccc(CCNc2nccc3occc23)cc1
Reply text: 1.56

Inquiry: Look up log10 IC50 of CS(=O)(=O)Nc1ccc(CCNc2cc(C(F)(F)F)nc3ccccc23)cc1 and report it.
Reply text: 0.49

Inquiry: Please look at this molecule and report its log10 IC50: CS(=O)(=O)Nc1ccc(CCNc2cc(Cl)nc3cc(OC(F)(F)F)ccc23)cc1
Reply text: 0.61

Inquiry: State its log10 IC50 for this molecule: O=[N+]([O-])c1ccc(CCNc2cc(Cl)nc3cccc(F)c23)cc1
Reply text: -0.19

Inquiry: Report log10 IC50 for O=S(=O)(Nc1ccc(CCNc2ncnc3ccccc23)cc1)C(F)(F)F
Reply text: 1.15

Inquiry: Output measured log10 IC50 for this item: O=[N+]([O-])c1ccc(CCNc2ccnc3ccccc23)cc1
Reply text: 0.20

Inquiry: Answer with reported log10 IC50 of CS(=O)(=O)Nc1ccc(CCNc2ncnc3ccc(-c4ccc(Cl)cc4Cl)cc23)cc1
Reply text: 0.82

Inquiry: Give log10 IC50 for CS(=O)(=O)Nc1ccc(CCNc2ccnc3cc(OC(F)(F)F)ccc23)cc1
Reply text: 0.28

Inquiry: Provide log10 IC50 value for the following molecule: CS(=O)(=O)Nc1ccc(CCNc2cc(Cl)nc3ccc(F)cc23)cc1
Reply text: -1.00

Inquiry: Answer with the recorded log10 IC50 of Cc1cnc2ccccc2c1NCCc1ccc(NS(C)(=O)=O)cc1 only.
Reply text: -0.21

Inquiry: State, in one line, measured log10 IC50 of O=[N+]([O-])c1ccc(CCNc2cc(C(F)(F)F)nc3ccccc23)cc1
Reply text: 0.75

Inquiry: For the molecule O=[N+]([O-])c1ccc(CCNc2cc(Cl)nc3ccc(Cl)cc23)cc1 , give its reported log10 IC50.
Reply text: 0.52
